Below, each of the compounds is paired with its reported Ratio of remaining active allergen after Deactivant/Tannic Acid Treatment value.
- target.desc: Der-f allergens (Dermatophagoides farinae)
- Construct: Dust is collected from Hoover™ vacuum cleaner bags and passed through a series of sieves down to 63 microns; from tissue; host or cells: house dust from vacuum cleaner bags, sieved to 63 microns
- Sequence (P16311 99-321): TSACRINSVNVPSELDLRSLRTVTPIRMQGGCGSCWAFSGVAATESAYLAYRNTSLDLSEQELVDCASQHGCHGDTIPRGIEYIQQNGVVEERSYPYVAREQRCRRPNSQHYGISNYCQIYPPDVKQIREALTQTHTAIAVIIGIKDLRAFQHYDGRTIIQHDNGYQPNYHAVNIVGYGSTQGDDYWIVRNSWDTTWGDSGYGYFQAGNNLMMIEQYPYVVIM
- Format: biochemical
// return a plain number; no unit text

// solved cases for Ratio of remaining active allergen after Deactivant/Tannic Acid Treatment follow
{"compound": "CN1CCCC1=O", "readout.number": 1.362}
{"compound": "O=C1O[C@H]([C@@H](O)CO)C(O)=C1O", "readout.number": 1.333}

Request: Ratio of remaining active allergen after Deactivant/Tannic Acid Treatment for CCCCC(CC)COC(=O)CC(C(=O)OCC(CC)CCCC)S(=O)(=O)[O-].[Na+] (centres unmarked) ?
Response: 1.298

Request: Repeat for the following compound: O=C(NCO)N(CO)C1(CO)C(=O)NC(=O)N1CO (centres unmarked)
Response: 0.685

Request: Note, next up: NC(N)=O
Response: 2.500

* * *

Entries and their Amount of Allergen remaining active after deactivant treatment values follow.
- target.desc: Der-f allergens (Dermatophagoides farinae, UniProt P16311)
- Construct: Dust is collected from Hoover™ vacuum cleaner bags and passed through a series of sieves down to 63 microns; from tissue; host or cells: house dust from vacuum cleaner bags, sieved to 63 microns
- Format: biochemical
- experimental.setup: Der-f; 0.2 g sieved house dust sprayed with 2% aqueous deactivant (AgCl composite 0.05%, immobilised tannic acid 1%, hinokitol 0.5%)
Counter-ions that a name gives are not always drawn.
API note: the answer field is a bare number with no unit suffix.

{"molecule": "CCCCCCCCCCCCCCCC[N+](C)(C)C.[Cl-] [hexadecyltrimethylammonium chloride]", "target.desc": "Der-f allergens (Dermatophagoides farinae, UniProt P16311)", "readout.number": 4075}
{"molecule": "N=C(NCCCCCCNC(=N)NC(=N)Nc1ccc(Cl)cc1)NC(=N)Nc1ccc(Cl)cc1", "target.desc": "Der-f allergens (Dermatophagoides farinae, UniProt P16311)", "readout.number": 1412.5}
{"molecule": "O=C(NCO)N(CO)C1(CO)C(=O)NC(=O)N1CO (stereo not shown)", "target.desc": "Der-f allergens (Dermatophagoides farinae, UniProt P16311)", "readout.number": 950}
{"molecule": "O=C1c2ccccc2C(=O)c2ccccc21 [Anthraquinone sodium salt, the sodium salt of anthraquinone]", "target.desc": "Der-f allergens (Dermatophagoides farinae, UniProt P16311)", "readout.number": 1530}
{"molecule": "O=C1O[C@H]([C@@H](O)CO)C(O)=C1O", "target.desc": "Der-f allergens (Dermatophagoides farinae, UniProt P16311)", "readout.number": 2000}
{"molecule": "CC(C)c1cccc(=O)c(O)c1", "target.desc": "Der-f allergens (Dermatophagoides farinae, UniProt P16311)", "readout.number": 3065}
{"molecule": "O=C1C=CC(=O)O1 [Maleic anhydride, maleic anhydride]", "target.desc": "Der-f allergens (Dermatophagoides farinae, UniProt P16311)", "readout.number": 1312.5}
{"molecule": "NC(N)=O", "target.desc": "Der-f allergens (Dermatophagoides farinae, UniProt P16311)", "readout.number": 3750}

Request: I am curious: what Amount of Allergen remaining active after deactivant treatment value has been reported for CCCCC(CC)COC(=O)CC(C(=O)OCC(CC)CCCC)S(=O)(=O)[O-].[Na+] (stereo not shown) ?
Response: 1525

Request: Same read-out for CCCOCC(C)O (stereo not shown) ?
Response: 3950

Request: Same again, this time with C=CCc1cc(OC)c2c(c1OC)OCO2
Response: 1225

Request: CN1CCCC1=O
Response: 1600

Request: Queued: Cc1ccc(C(C)C)c(O)c1
Response: 725
